The measurements presented in this section are drawn from patent US10287267B2.

Tested on: Wnt pathway (Sp5-Luc reporter, TCF/LEF binding sites) in SW480 colon carcinoma cells
Procedure Summary: Screening assay for Wnt activity: Sp5-Luc reporter gene assay;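 note: firefly luciferase luminescence read in stably transduced SW480 cells carrying the Sp5 promoter reporter with eight TCF/LEF sites, compounds given in 0.1% DMSO final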
Format: cell-based, human
Experimental Setup: Homo sapiens; Sp5-Luc reporter, SW480 cells, 36 to 48 hours
Result Type: EC50 (nM)
Give the quantity in nM, number only.

O=C(CN1CCCC1)Nc1cc2cc(-c3cn[nH]c3C(F)(F)F)ccc2cn1 : 7330
CN1CCC(C(=O)Nc2cc3cc(-c4cnn(C)c4)c(F)cc3cn2)CC1 : 1590
Cc1ncc(-c2ccc3cnc(NC(=O)[C@H]4CC[C@H](N(C)C)CC4)cc3c2)o1 [Compound 1017] : 621
Cn1cc(-c2ccc3cnc(NC(=O)CN4CCCC4)cc3c2)nn1 : 446
O=C(CN1CCCC1)Nc1cc2cc(-c3cnn4c3CN(CCF)CC4)ccc2cn1 : 3100

Query block: Given Cn1cc(-c2ccc3cnc(NC(=O)C4CCN(CC5(C)COC5)CC4)cc3c2)cn1 , state its recorded EC50.
Result block: 1000

Query block: Given CC(C)CN1CCN(CC(=O)Nc2cc3cc(-c4cnn(C)c4)ccc3cn2)CC1 , state its recorded EC50.
Result block: 3750

Query block: Given O=C(Nc1cc2cc(-c3cncs3)ccc2cn1)C1CC(F)(F)C1 , state its recorded EC50.
Result block: 541

Query block: Given Cc1ncc(-c2ccc3cnc(NC(=O)C4CCCCC4)cc3c2)n1C , state its recorded EC50.
Result block: 2200

Query block: Given CN(C)C1CCC(C(=O)Nc2cc3cc(-c4cnn(C)c4)ccc3cn2)CC1 (stereo in doubt) , state its recorded EC50.
Result block: 2730

Query block: Given Cc1ncc(-c2ccc3cnc(NC(=O)CN4CCCCC4)cc3c2)o1 , state its recorded EC50.
Result block: 3870

Query block: Given O=C(Nc1cc2cc(-c3cnco3)ccc2cn1)C1CC1 , state its recorded EC50.
Result block: 609

Query block: Given Cn1cc(-c2ccc3cnc(NC(=O)[C@H]4C[C@H](N5CCOCC5)C4)cc3c2)cn1 , state its recorded EC50.
Result block: 1370
